Kindly state IC50 for each of the entries shown.
Target: V106A mutant RT (HIV-1 RT) (Human immunodeficiency virus type 1 group M subtype B, UniProt P03366, V705A)
Construct: mutations that occur in the reverse transcriptase segment of the pol gene
Test: biochemical
Conditions: IC50 V106A (nM)

Q: Could you share which IC50 value was measured for CCN1c2ncc(CCOc3ccc(CC(N)=O)c4ccccc34)cc2C(=O)N(C)c2cccnc21 ?
Ans: 100 to 1000 nM

Q: Could you share which IC50 value was measured for CCN1c2ncc(CCOc3ccc(C(=O)O)c4ccccc34)cc2C(=O)Nc2c(C)cc(F)nc21 ?
Ans: 100 to 1000 nM

Q: Could you share which IC50 value was measured for CCN1c2ncc(CCOc3ccc(CC(C)C(=O)O)c4ccccc34)cc2C(=O)N(C)c2ccc(F)nc21 (centres unmarked) ?
Ans: > 1000 nM

Q: Could you share which IC50 value was measured for CCN1c2ncc(CCOc3ccc(C(=O)O)c4c3CCCC4)cc2C(=O)N(C)c2ccc(F)nc21 ?
Ans: > 1000 nM

Q: Could you share which IC50 value was measured for CCN1c2ncc(CCOc3ccc(CCC(=O)O)c4ccccc34)cc2C(=O)N(C)c2ccc(C)nc21 ?
Ans: > 1000 nM

Q: Could you share which IC50 value was measured for CCN1c2ncc(CCOc3ccc(C(=O)O)c4ccccc34)cc2C(=O)Nc2c(C)ccnc21 ?
Ans: 100 to 1000 nM

Q: Could you share which IC50 value was measured for CCN1c2ncc(CCOc3ccc(CCC(=O)O)c4c3CCCC4)cc2C(=O)N(C)c2cccnc21 ?
Ans: > 1000 nM

Q: Could you share which IC50 value was measured for CCN1c2ncc(CCOc3ccc(C(=O)O)c4ccccc34)cc2C(=O)Nc2c(C)cc(Cl)nc21 ?
Ans: 100 to 1000 nM

Q: Could you share which IC50 value was measured for CCN1c2ncc(CCOc3ccc(C(=O)O)c4c3CCCC4)cc2C(=O)N(C)c2ccc(Cl)nc21 ?
Ans: > 1000 nM

Q: Could you share which IC50 value was measured for CCN1c2ncc(CCOc3ccc(CCC(=O)O)c4ccccc34)cc2C(=O)N(C)c2ccc(Cl)nc21 ?
Ans: 100 to 1000 nM

Q: Could you share which IC50 value was measured for CCN1c2ncc(CCOc3ccc(CC(C)C(=O)O)c4ccccc34)cc2C(=O)Nc2c(C)cc(Cl)nc21 (centres unmarked) ?
Ans: 100 to 1000 nM

Q: Could you share which IC50 value was measured for CCN1c2ncc(CCOc3ccc(C4CC4C(=O)O)c4ccccc34)cc2C(=O)N(C)c2ccc(F)nc21 (centres unmarked) ?
Ans: 100 to 1000 nM

Q: Could you share which IC50 value was measured for CCN1c2ncc(CCOc3ccc(/C=C/C(=O)O)c4ccccc34)cc2C(=O)Nc2c(C)cc(Cl)nc21 [Entry 1030] ?
Ans: < 100 nM

Q: Could you share which IC50 value was measured for CCN1c2ncc(CCOc3ccc(CC(=O)O)c4ccccc34)cc2C(=O)Nc2c(C)ccnc21 ?
Ans: > 1000 nM

---

System: K103N/Y181C (HIV-1 double mutant strain)
Test: EC50 assay, K103N/Y181C strain
Assay type: cell-based
Conditions: Human immunodeficiency virus 1, read-out: EC50 K103N/Y181C (nM), K103N/Y181C double mutant
RESULT_TYPE: EC50

Q: EC50 of CCN1c2ncc(CCOc3ccc(CCC(=O)O)c4c3CCCC4)cc2C(=O)N(C)c2cccnc21 on K103N/Y181C (HIV-1 double mutant strain)?
Ans: < 100 nM

Q: EC50 of CCN1c2ncc(CCOc3ccc(NS(C)(=O)=O)c4ccccc34)cc2C(=O)N(C)c2cccnc21 on K103N/Y181C (HIV-1 double mutant strain)?
Ans: < 100 nM

Q: EC50 of CCN1c2ncc(CCOc3ccc(CC(=O)O)c4c3CCCC4)cc2C(=O)N(C)c2ccc(Cl)nc21 on K103N/Y181C (HIV-1 double mutant strain)?
Ans: < 100 nM

Q: EC50 of CCNC(=O)N1CCc2c(OCCc3cnc4c(c3)C(=O)N(C)c3cccnc3N4CC)ccc(C(=O)O)c2C1 on K103N/Y181C (HIV-1 double mutant strain)?
Ans: > 1000 nM
